Biological target: pooled human IgG
Measurement name: Enzyme Activity Endpoint Assay: IgG
Put down the number, then write its unit next to it.

PRT-12 (protein) MANQEIRYSEVTPYHVTSVWTKGVTPPADFTQGEDVFHAPYKANQGWYDITKTFNGKDDLLCGAATAGNMLHWWFDQNKDQIERYLKEHPEKQKINFNGEQMFDVKEAIDTKDSQTDSKLFEYFKEKAFPYLSTKHLGVFPDHVIDMFINGYRLSLTNHGPTPVKRGSKDPRGGFFDAVFTRGDQSKLLTSRHDFKEKTLNEISDLIKKELTEGKALGLSHTYANVRINHVINLWGADFDSNGNLEAIYVTDSDSNASIGMKKYFVGVNSAGKVAISAKEIKEDNIGAQVLGLFTLSTGQDIWEQTN; 16 ng/µL
PRT-3 (protein) MRNATEAYAKEVPHQITSVWTKGVTPLTPEQFRYNNEDVIHAPYLAHQGWYDITKAFDGKDNLLCGAATAGNMLHWWFDQNKTEIEAYLSKHPEKQKIIFNNQELFDLKAAIDTKDSQTNSQLFNYFRDKAFPNLSARQLGVMPDLVLDMFINGYYLNVFKTQSTDVNRPYQDKDKRGGIFDAVFTRGDQTTLLTARHDLKNKGLNDISTIIKQELTEGRALALSHTYANVSISHVINLWGADFNAEGNLEAIYVTDSDANASIGMKKYFVGINAHGHVAISAKKIEGENIGAQVLGLFTLSSGKDIWQKLS; 11 ng/µL
PRT-11 (protein) MANQEIRYSEETPYHVTSVWTKGVTPPANFTQGEDVFHAPYVANQGWYDITKTFNGKDDLLCGAATAGNMLHWWFDQNKDQIEKYLKEHPEKQKINFNGEQMFDVKEAIDTKDSQTDSKLFEYFKEKAFPYLSTKHLGVFPDHVIDMFINGYRLSLTNHGPTPVKEQSKDPRGGIFDAVFTRGDQSKLLTSRHDFKEKTLKEISDLIKKELSEGKALGLSHTYANVRINHVINLWGADFDSNGNLKAIYVTDSDSNASIGMKKYFVGVNSAGKVAISAKEIKEDNIGAQVLGLFTLSTGQDIWNQTN; 13 ng/µL

Provide one value: measured Enzyme Activity Endpoint Assay: IgG of PRT-28 (protein) MANQEIRYSEVTPYHVTSVWTKGVTPPANFTQGEDVFHAPYVANQGWYDITKTFNGKDDLLCGAATAGNMLHWWFDQNKDQIKRYLEEHPEKQKINFNGEQMFDVKEAIDTKDHQLDSKLFEYFKEKAFPYLSTKHLGVFPDHVLDMFINGYRLSLTNHGPTPVKEGSKDPRGGIFDAVFTRGDQSKLLTSRHDFKEKTLKEISDLIKKELTEGKALGLSHTYANVRINHVINLWGADFDSNGNLKAIYVTDSDSNASIGMKKYFVGVNSAGKVAISAKEIKEDNIGAQVLGLFTLSTGQDSWNQTN
14 ng/µL

Provide one value: measured Enzyme Activity Endpoint Assay: IgG of PRT-21 (protein) MANQEIRYSEVSPSTVTSVWTKGVTPPTNFTYGEDVLHAPYVANQGWYDITKTFNGKDDLLCGAATAGNMLHWWFDQNKEQIENYLKKHPEKQKINFNGEQMFDVKEAIDTKDSQLDSKLFEYFKEKAFPYLSTKHLGVFPDHVIDMFINGYRLSLTNHGPTPVKRGSKDPRGGIFDAVFTRGDQSKLLTNRHDFKEKTLKEISDLIKQELTEGKALGISHTYANVRINHVINLWGADFDAEGNLEAIYVTDSDSNASIGMKKYFVGVNSNGKVAISAKEIEEDNIGAQVLGLFTLSTGQDIWNQTN
23 ng/µL

Provide one value: measured Enzyme Activity Endpoint Assay: IgG of PRT-43 (protein) MANQEIRYSEVTPYHVTSVWTKGVTPPANFTQGEDVFHAPYVANQGWYDITKTFNGKDDLLCGAATAGNMLHWWFDQNKDQIDRYLEEHPEKQKINFNGEQMFDVKEAIDTKNDQTDSKLFEYFKEKAFPYLSTKHLGVFPDLVIDMFINGYRLSLTNHGPTPVKEGSKDPRGGIFDAVFTRGDQSKLLTSRHDLKEKNLKEISDLIKKELTEGKALGLSHTYANVRINHVINLWGADFDSNGNLKAIYVTDSDSNASIGMKKYFVGVNSAGKVAISAKEIKEDNIGAQVLGLFTLSTGQDSWNQTN
13 ng/µL

Provide one value: measured Enzyme Activity Endpoint Assay: IgG of PRT-7 (protein) MANQEIRYSEETPYHVTSVWTKGVTPPANFTQGEDVFHAPYVANQGWYDITKTFNGKDDLLCGAATAGNMLHWWFDQNKDQIERYLKKHPEKQKINFNGEQMFDVKEAIDTKDSQTDSKLFEYFKEKAFPYLSTKHLGVFPDHVIDMFINGYRLSLTNHGPTPVKEGSKDPRGGIFDAVFTRGDQSKLLTSRHDFKEKNLKEISDLIKKELTEGKALGLSHTYANVRINHVINLWGADFDSNGNLKAIYVTDSDSNASIGMKKYFVGVNSAGKVAISAKEIKEDNIGAQVLGLFTLSTGQDIWEQTN
18 ng/µL

Provide one value: measured Enzyme Activity Endpoint Assay: IgG of PRT-46 (protein) MANQEIRYSEVTPYHVTSVWTKGVTPPANFTQGEDVFHAPYVANQGWYDITKTFNGKDDLLCGAATAGNMLHWWFDQNKDQIDRYLEEHPEKAKINFNGEQMFDVKEAIDTKNDQLDSKLFEYFKEKAFPYLSTKHLGVFPDLVLDMFINGYRLSLTNHGPTPVKEGSKDPRGGFFDAVFTRGDQSKLLTSRHDFKEKNLKEISDLIKKELTEGKALGLSHTYANVRINHVINLWGADFDSNGNLKAIYVTDSDSNASIGMKRYFVGVNSAGKVAISAKEIKEDNIGAQVLGLFTLSTGQDSWNQTN
15 ng/µL
